Origin of measurements: PubChem BioAssay (NCI)

test system: SK-MEL-5 melanoma; assay: NCI tumour cell line growth inhibition, 48 h
measuredEndpoint: TGI (µM)
Express the result in µM but write the number alone.

Fill in reported TGI for this entry: O=C(NCCc1ccccc1)C(c1csc2ccccc12)N(C(=O)CCl)c1ccc(-c2cnco2)cc1 (stereo not given)
3.01

Tell me measured TGI for Cc1cc(CC(O)(C(F)(F)F)C(F)(F)F)cc(CC(O)(C(F)(F)F)C(F)(F)F)n1 please.
3.34

Supply recorded TGI for COC(=O)C1=C(O)C(C(=O)OC)[C@@]2(O)[C@@H](C(=O)OC)C(c3ccc(OC(=O)C(Cc4ccccc4)NC(C)=O)cc3)C[C@@H]1[C@@H]2C(=O)OC (stereo not given in full) here.
39.3

For the compound COc1ccc(/C=C/C=C2C(=O)NC(=S)NC2=O)cc1 , give its measured TGI value.
26.1

Give TGI for the following compound: CCOC(=O)C(=C=Cc1cccs1)C(=O)c1ccccc1
10.5

Give recorded TGI. CC(=O)c1c[nH]c2ccc(-c3ccnc(Nc4ccc(NC(=O)c5cccc(F)c5)c(CN5CCOCC5)c4)n3)cc12
0.463

Return value of TGI for input COc1ccc2c(c1)Cc1cc(N=[N+]([O-])c3ccc4c(c3)Cc3cc(OC)ccc3-4)ccc1-2 , no commentary.
42.8

Recall and state the measured TGI for COc1ccc(-c2ccc(/C=N/n3cnn(CN4CCN(C)CC4)c3=S)o2)c([N+](=O)[O-])c1 .
62.7
